Give measured MFC for each item. Keep answers brief.
System: Cryptococcus neoformans
procedure text: Antifungal activity against Cryptococcus neoformans ATCC 90113
Type: functional, organism-based
Numbers only, in µg/mL.

{"compound": "COc1cc(NC(C)CCCNC(=O)NC(CCCNC(=N)N)C(=O)NCCCC(C)Nc2cc(OC)cc3cccnc23)c2ncccc2c1.Cl (single isomer, unassigned; 36)", "attribute measured": "MFC", "u": "µg/mL", "recorded result": 10}
{"compound": "COc1cc(NC(C)CCCNC(=O)NC(CCCNC(=N)N)C(=O)NCCCC(C)Nc2cc(OC)cc3cccnc23)c2ncccc2c1.Cl (single isomer, unassigned; 39)", "attribute measured": "MFC", "u": "µg/mL", "recorded result": 20}
{"compound": "COc1cc(NC(C)CCCNC(=O)C[C@H](N)C(=O)NCCCC(C)Nc2cc(OC)cc3cccnc23)c2ncccc2c1.Cl (stereo not given in full)", "attribute measured": "MFC", "u": "µg/mL", "recorded result": 10}
{"compound": "CCCCCOc1c(OC)cc(NC(C)CCCNC(=S)NCCCC(C)Nc2cc(OC)c(OCCCCC)c3c(CC)ccnc23)c2nccc(CC)c12.Cl.Cl (stereo not given)", "attribute measured": "MFC", "u": "µg/mL", "recorded result": 20}

Then this compound:
Query COc1cc(NC(C)CCCNC(=O)C[C@H](N)C(=O)NCCCC(C)Nc2cc(OC)cc3ccc(C(C)(C)C)nc23)c2nc(C(C)(C)C)ccc2c1.Cl (stereo not given in full) yields MFC of 20

* * *

System: Leishmania donovani
procedure text: Antileishmanial activity against promastigotes of Leishmania donovani by alamar blue assay
Assay type: functional, organism-based
setup conditions: Leishmania donovani; read-out: IC50
Give measured IC50 for each item. Keep answers brief.
Report as: number unit

Record IC50 for all entries; do not skip any.
1. COc1cc(NC(C)CCCNC(=O)N[C@H](CCCN)C(=O)NCCCC(C)Nc2cc(OC)cc3ccc(C(C)(C)C)nc23)c2nc(C(C)(C)C)ccc2c1.Cl (stereo partly specified)
2. COc1cc(NC(C)CCCNC(=O)NC(CCCCN)C(=O)NCCCC(C)Nc2cc(OC)cc3ccc(C(C)(C)C)nc23)c2nc(C(C)(C)C)ccc2c1.Cl (single isomer, unassigned)

1: 20 mg/L; 2: 21 mg/L

Record IC50 for all entries; do not skip any.
1. COc1cc(NC(C)CCCNC(=O)c2cncc(C(=O)NCCCC(C)Nc3cc(OC)cc4cccnc34)c2)c2ncccc2c1.Cl (stereo unspecified)
2. COc1cc(NC(C)CCCNC(=O)NC(CCCN)C(=O)NCCCC(C)Nc2cc(OC)cc3cccnc23)c2ncccc2c1.Cl (single isomer, unassigned; 40)
3. COc1cc(NC(C)CCCNC(=O)NC(=O)NCCCC(C)Nc2cc(OC)cc3ccc(C(C)(C)C)nc23)c2nc(C(C)(C)C)ccc2c1.Cl.Cl (stereo unspecified)
4. COc1cc(NC(C)CCCNSC(=O)NCCCC(C)Nc2cc(OC)cc3cccnc23)c2ncccc2c1.Cl.Cl (stereo unspecified)

["18 mg/L", "18 mg/L", "25 mg/L", "20 mg/L"]

* * *

Give measured IC50 for each item. Keep answers brief.
System: Mycobacterium intracellulare
procedure text: Antibacterial activity against Mycobacterium intracellular ATCC 23068 by CLSI method
Type: functional, organism-based
One number for each entry, in µg/mL.

Example entries begin here.
{"compound": "CCCCCOc1c(OC)cc(NC(C)CCCNC(=S)NCCCC(C)Nc2cc(OC)c(OCCCCC)c3c(CC)ccnc23)c2nccc(CC)c12.Cl.Cl (stereo unspecified)", "u": "µg/mL", "IC50": 15}
{"compound": "COc1cc(NC(C)CCCNC(=O)N[C@@H](CCCN)C(=O)NCCCC(C)Nc2cc(OC)cc3ccc(C(C)(C)C)nc23)c2nc(C(C)(C)C)ccc2c1.Cl (stereo partly specified)", "u": "µg/mL", "IC50": 15}
{"compound": "COc1cc(NC(C)CCCNC(=O)N[C@H](CCCN)C(=O)NCCCC(C)Nc2cc(OC)cc3ccc(C(C)(C)C)nc23)c2nc(C(C)(C)C)ccc2c1.Cl (stereo partly specified)", "u": "µg/mL", "IC50": 10}

Record IC50 for all entries; do not skip any.
1. COc1cc(NC(C)CCCNCC(=O)NCCCC(C)Nc2cc(OC)cc3ccc(C(C)(C)C)nc23)c2nc(C(C)(C)C)ccc2c1.Cl.Cl (stereo unspecified)
2. COc1cc(NC(C)CCCNCCNCCNCCCC(C)Nc2cc(OC)cc3cccnc23)c2ncccc2c1.Cl.Cl (stereo unspecified)
3. COc1cc(NC(C)CCCNC(=O)NC(CCCNC(=N)N)C(=O)NCCCC(C)Nc2cc(OC)cc3cccnc23)c2ncccc2c1.Cl (single isomer, unassigned; 36)
4. COc1cc(NC(C)CCCNC(=O)C[C@H](N)C(=O)NCCCC(C)Nc2cc(OC)cc3cccnc23)c2ncccc2c1.Cl (stereo partly specified)
5. COc1cc(NC(C)CCCNC(=S)NCCCC(C)Nc2cc(OC)cc3cccnc23)c2ncccc2c1.Cl.Cl (stereo unspecified)
6. COc1cc(NC(C)CCCNC(=O)CC[C@H](N)C(=O)NCCCC(C)Nc2cc(OC)cc3cccnc23)c2ncccc2c1.Cl (stereo partly specified)

[15, 10, 15, 20, 4.5, 15]

Record IC50 for all entries; do not skip any.
1. COc1cc(NC(C)CCCNC(=O)NC(CCCCN)C(=O)NCCCC(C)Nc2cc(OC)cc3ccc(C(C)(C)C)nc23)c2nc(C(C)(C)C)ccc2c1.Cl (single isomer, unassigned)
2. COc1cc(NC(C)CCCNC(=O)C[C@@H](N)C(=O)NCCCC(C)Nc2cc(OC)cc3cccnc23)c2ncccc2c1.Cl (stereo partly specified)

1: 7.12; 2: 15
